Parameter: EC50. Scope: all listed entries.
Target: human GPR119 (Homo sapiens)
Construct: expression vector for human GPR119 cDNA (Acc. No. NP_848566); expressed in transfected cells
Sequence (Q8TDV5 whole entry): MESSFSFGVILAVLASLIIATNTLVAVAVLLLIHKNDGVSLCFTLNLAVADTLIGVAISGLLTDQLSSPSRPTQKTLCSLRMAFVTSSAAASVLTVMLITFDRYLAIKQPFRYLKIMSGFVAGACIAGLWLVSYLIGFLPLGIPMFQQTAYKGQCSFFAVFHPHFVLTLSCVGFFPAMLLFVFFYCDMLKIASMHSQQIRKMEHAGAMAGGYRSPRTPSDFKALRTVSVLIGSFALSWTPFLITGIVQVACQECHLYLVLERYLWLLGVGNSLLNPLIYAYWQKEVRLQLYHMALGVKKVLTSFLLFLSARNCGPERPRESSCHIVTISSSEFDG
Assay: AlphaScreen cAMP assay in Min-6/hGPR119 cells (activation of GPR119, intracellular cAMP)
Type: cell-based
Conditions: MIN6 cells stably transfected with human GPR119; cAMP by AlphaScreen after 45 minutes incubation at room temperature

Some compounds with known EC50 results, for comparison:
CC(C)(C)OC(=O)N1CCC(C2Cc3nc(N4CCN(S(C)(=O)=O)CC4)ncc3O2)CC1 (stereo not shown)	603 nM
CNS(=O)(=O)c1ccc(-c2cc3c(cn2)OC(C2CCN(C(=O)OC(C)(C)C)CC2)C3)cc1 (stereo not shown)	33 nM
CC(C)(C)OC(=O)N1CCC(C2Cc3cc(-c4ccc(S(C)(=O)=O)cc4)ncc3O2)CC1 (stereo not shown)	9 nM
CC(C)OC(=O)N1CCC(C2Cc3cc(-c4ccc(CC(=O)N(C)CCO)cc4)ccc3O2)CC1 (stereo not shown)	132 nM

**Query** I'd like to know its EC50. The compound in question is CC(C)OC(=O)N1CCC(C2Cc3cc(-c4ccc(CC(=O)NCCC(C)(C)O)cc4)ccc3O2)CC1 (stereo not shown)
**Result** 98 nM

**Query** I'd like to know its EC50. The compound in question is CC(C)(C)OC(=O)N1CCC(C2Cc3cc(-c4ccnc(F)c4)ncc3O2)CC1 (stereo not shown)
**Result** 8 nM

**Query** I'd like to know its EC50. The compound in question is CC(C)OC(=O)N1CCC(C2Cc3cc(-c4ccc(C(=O)N(C)C5CCCOC5)cc4)ccc3O2)CC1 (stereo not shown)
**Result** 52 nM

**Query** I'd like to know its EC50. The compound in question is CC(C)(C)OC(=O)N1CCC(C2Cc3cc(-c4ccc(C#N)c(F)c4)ncc3O2)CC1 (stereo not shown)
**Result** 23 nM

**Query** I'd like to know its EC50. The compound in question is CC(=O)c1ccc(-c2ccc3c(c2)CC(C2CCN(C(=O)OC(C)C)CC2)O3)cc1 (stereo not shown)
**Result** 200 nM
